Type: physicochemical
run-parameters: method [a]: HPLC/LC-MS on reversed phase at pH 2.7, 0.1% formic acid in water / acetonitrile, linear gradient 10% to 95% acetonitrile
experimental-readout: log P

{"columns": ["molecule", "experimental-readout", "result"],
 "data": [
  ["C#Cc1cnc2ccc(C3=NOC(C)(C(=O)NCc4ccc(-c5csnn5)cc4)C3)cc2c1 (centres unmarked) [compound 86]", "log P", "2.82^[a]"]
]}

Q: Endpoint output: log P of CC(C)NC(=O)C1(C)CC(c2ccc3ncc(Br)cc3c2)=NO1 (centres unmarked) [compound 31] . Value?
A: 2.75^[a]

Q: Try this molecule too: CCn1cc(CNC(=O)C2(C)CC(c3ccc4ncc(SC)cc4c3)=NO2)c(C)n1 (centres unmarked) [compound 147]
A: 2.09^[a]

Q: Try this molecule too: CC1(C(=O)NCc2ccc(Cl)cc2Cl)CC(c2ccc3ncc(Br)cc3c2)=NO1 (centres unmarked) [compound 95]
A: 4.16^[a]

Q: Try this molecule too: CC1(C(=O)NCc2ccccc2)CC(c2ccc3ncc(Br)cc3c2)=NO1 (centres unmarked) [compound 91]
A: 3.21^[a]

Q: Try this molecule too: CC(C)NC(=O)C1(C(C)C)CC(c2ccc3ncc(Br)cc3c2)=NO1 (centres unmarked) [compound 62]
A: 3.51^[a]

Q: Try this molecule too: CCn1cc(CNC(=O)C2(CBr)CC(c3ccc4ncc(Br)cc4c3)=NO2)c(C)n1 (centres unmarked) [compound 137]
A: 2.62^[a]

Q: Try this molecule too: C#Cc1cnc2ccc(C3=NOC(C)(C(=O)NCc4cccnc4)C3)cc2c1 (centres unmarked) [compound 103]
A: 1.26^[a]
